Here, each record is paired with measured GI50 data.
# Tested on: MDA-N
# measurement-description: NCI tumour cell line growth inhibition, 48 h
Calls of active or inactive are those of the source. Rule as the data show it: active = GI50 up to about 1.1 µM and inactive = higher.
property-name: GI50

INSERT INTO measurements (molecule, observed_measurement) VALUES
  ('C/C=N\n1c(C)n[nH]c1=O', '> 100 µM (inactive)'),
  ('CC(=O)n1c(COS(C)(=O)=O)nc2ccccc21', '> 100 µM (inactive)'),
  ('COC(C(=O)NN)c1ccccc1 (stereo not given)', '> 100 µM (inactive)'),
  ('O=c1cc(CO)n(CCc2c[nH]c3ccccc23)cc1O', '21.3 µM (inactive)'),
  ('Cc1nc2sc3ccccc3n2c(=O)c1/N=N/c1ccc(Br)cc1', '> 100 µM (inactive)'),
  ('CC(=O)O[C@@H]1C[C@]2(C(=O)c3ccccc3)C(=O)C(=O)S[C@]12c1ccccc1', '30 µM (inactive)'),
  ('C=C[C@H]1CC[C@H]2[C@@H]3CC=C4C[C@@H](OC5OCC(O)C(O)C5O)CC[C@]4(C)[C@H]3CC[C@]12C (stereo not given in full)', '17.6 µM (inactive)'),
  ('C=CCn1c(=O)c(C(=O)Nc2nc(C34CC5CC(CC(C5)C3)C4)cs2)c(O)c2ccccc21', '48.6 µM (inactive)'),
  ('COc1cc(-c2[o+]c3cc(O)cc(O)c3cc2O)cc(O)c1O', '34.8 µM (inactive)'),
  ('CCCCCCCC1(N=[N+]=[N-])C(=O)Nc2ccccc2C1=O (stereo not given)', '19.8 µM (inactive)');

----------
# Test system: HCT-116
# measurement-description: NCI tumour cell line growth inhibition, 48 h
Activity calls are given as the source filed them. Cut-off read from the data, not from the text of the source: active = GI50 up to about 1.1 µM and inactive = higher.
Recorded measurements of GI50, one per entry
property-name: GI50

INSERT INTO results (molecule, observed_measurement) VALUES
  ('COc1cc(-c2[o+]c3cc(O)cc(O)c3cc2O)cc(O)c1O', '> 100 µM (inactive)'),
  ('C#CC[N+](CCO)(CCO)CCCCCCCCCCCCCCCCCC', '8.41 µM (inactive)'),
  ('N=C(N)N/N=C/c1nc2sccn2c1[N+](=O)[O-]', '22.4 µM (inactive)'),
  ('CN(NC(=O)c1cccs1)C1=NCCN1', '> 100 µM (inactive)'),
  ('O=C(O)c1ccc(Nc2nc3ccc(C(F)(F)F)cc3nc2C(=O)O)cc1', '> 100 µM (inactive)'),
  ('COc1cc(C2SC(=N)Nc3c2c(C)nn3C(=O)Cc2ccccc2)ccc1O (stereo not drawn)', '> 100 µM (inactive)'),
  ('CC1=NN(c2cccc(Cl)c2)C2(C1=Cc1cccs1)C(Cl)C(=O)N2c1nc2ccccc2s1 (stereo not drawn)', '18.4 µM (inactive)'),
  ('C=C1C(=O)OC2/C=C(CO)/C=C\C3OC3(C)CC(OC(=O)/C(C)=C/COC(C)=O)C12 (stereo not drawn)', '1.5 µM (inactive)'),
  ('CCCCCc1c(Cl)nc(Cl)nc1Cl', '3.82 µM (inactive)'),
  ('COc1c(/C=C/C(C)(C)O)cc(C2CC(=O)c3c(O)cc(O)cc3O2)cc1CC=C(C)C (stereo not drawn)', '9.14 µM (inactive)'),
  ('CC(=O)OCCC[C@@H]1C(=C(C)C)CCC2[C@@]1(C)CC[C@@]1(C)C[C@](C)(CCC=C(C)C)CC[C@]21C (stereo partly drawn)', '> 100 µM (inactive)'),
  ('COc1cccc(C23CCCC(C2)N(C)CC3OC(=O)c2ccccc2)c1OC (stereo not drawn)', '20 µM (inactive)'),
  ('Cn1c(C2CC(C)(C)c3c2c2ccccc2n3C)cc2ccccc21 (stereo not drawn)', '30.1 µM (inactive)'),
  ('CC1(C)CC[C@]2(C(=O)O)CC[C@]3(C)C(=CC[C@@H]4[C@@]5(C)CC[C@@H]6OC(C)(C)OC[C@@]6(C)[C@@H]5CC[C@]43C)[C@H]2C1', '5.33 µM (inactive)'),
  ('COC(=O)[C@H]1NC(=O)CCSSC1(C)C', '> 100 µM (inactive)'),
  ('CCCCc1c2c(nc3c1CC/C(=C\c1ccc([N+](=O)[O-])cc1)C3=O)CCCC2', '1.8 µM (inactive)'),
  ('O=C(NC1CCCCC1)c1c(O)[nH]c(=S)[nH]c1=O', '> 100 µM (inactive)'),
  ('O=C(O)C1OC(n2cc(F)c(=O)[nH]c2=O)CC1O (stereo not drawn)', '23.1 µM (inactive)'),
  ('CC(C)OC(=O)C1(C(C)C)CCc2ccc(C(=O)CCC(=O)O)cc21 (stereo not drawn)', '> 100 µM (inactive)'),
  ('O=C1OC(c2ccccc2)(c2ccccc2)CC1CN1CCOCC1 (stereo not drawn)', '12.8 µM (inactive)'),
  ('COc1ccc(/C(Cl)=C(\C=N/O)c2ccc(OC)c(OC)c2)cc1OC', '> 100 µM (inactive)'),
  ('COc1cc(C(=O)C/C(CCCC(=O)Nc2ccccc2[N+](=O)[O-])=N/NC(=O)c2cc3ccccc3cc2O)ccc1O', '34.4 µM (inactive)'),
  ('N=C(N)N/N=C/c1oc(-c2ccc(S(=O)(=O)O)o2)c(-c2ccc(S(=O)(=O)O)o2)c1[N+](=O)[O-]', '> 100 µM (inactive)'),
  ('COc1ccccc1N1C(=O)CSC1c1c[nH]c2ccccc12 (stereo not drawn)', '> 100 µM (inactive)'),
  ('c1ccc(C[N+]23CN4CN(CN(C4)C2)C3)cc1', '27.7 µM (inactive)'),
  ('O=C(CSC(=S)N1CCCCC1)Nc1nc2c(s1)CCCC2', '12.1 µM (inactive)'),
  ('Clc1ccc(CN2CCCN(Cc3ccc(Cl)cc3)C2c2cc3ccccc3c3ccccc23)cc1', '44.8 µM (inactive)'),
  ('CCOC(=O)CCC(NC(=O)c1ccc(Oc2nc3ccccc3nc2-c2ccccc2)cc1)C(=O)OCC (stereo not drawn)', '12.9 µM (inactive)'),
  ('O=c1c2ccccc2nc(N/N=C/c2ccccc2O)n1-c1ccccc1', '2.88 µM (inactive)'),
  ('Cc1cn(Cc2cn(CC3OC(n4cc(C)c(=O)[nH]c4=O)CC3O)nn2)c(=O)[nH]c1=O (stereo not drawn)', '> 100 µM (inactive)'),
  ('COc1cc(/C=C/C(C)=O)ccc1OP(=O)(O)O', '> 100 µM (inactive)'),
  ('O=C(O)CN1CCN(CC(=O)O)CCN(CC(=O)O)CC1', '3.7 µM (inactive)'),
  ('COc1cc(C(=O)C/C(CCC(=O)Nc2ccc(Cl)cc2C)=N/NC(=O)C(N)=O)ccc1O', '> 100 µM (inactive)'),
  ('Cc1cccc(C)c1NC(=O)/C=C/c1ccccc1', '> 100 µM (inactive)'),
  ('COC(=O)CC1CCN(C#N)CC1CC[N+](=O)[O-] (stereo not drawn)', '> 100 µM (inactive)'),
  ('O=C(Cn1c(=O)oc2ccccc21)N(c1ccccc1)c1ccccc1', '> 100 µM (inactive)'),
  ('O=c1cc(NNc2ccccc2F)[nH]c(=O)[nH]1', '16.9 µM (inactive)'),
  ('NC(=O)CCC(NC(=O)Cc1ccccc1)C(=O)O.NC(CCC(=O)NC(=O)Cc1ccccc1)C(=O)O (stereo not drawn)', '> 8130 µM (inactive)'),
  ('O=S1(=O)c2cnccc2N=C(NCc2cccc3ccccc23)N1c1ccccc1', '9.35 µM (inactive)'),
  ('O=Cc1c(O)c(C(=O)Nc2ccc3[nH]c(=O)[nH]c3c2)cc2ccccc12', '> 100 µM (inactive)'),
  ('CC1=C(C#N)C2C(=C(C)N1)C(N)=Nc1ccccc12 (stereo not drawn)', '32.6 µM (inactive)'),
  ('O=c1c2ccccc2c2c3c1cccc3c1cccc3c(=O)c4ccccc4c2c31', '> 100 µM (inactive)'),
  ('O=C1/C(=C/c2ccc(Cl)cc2)CSc2ccccc21', '2.6 µM (inactive)');
